FYI, the data here is from PubChem BioAssay (NCI).

Item-by-item account of growth
system: CAKI-1 renal; assay: NCI-60 one-dose screen, 48 h (100 = growth as untreated, 0 = no growth, -100 = all killed); conditions: 10 µM unless noted
Compounds without any hit were thinned out: in the full panel of roughly 83,000, 20% have a hit.

>  <COMPOUND>
CCCCCCCCCCN(CCCCCCCCCC)CC(=O)c1ccc2cc(Br)c3ccccc3c2c1

>  <growth, %>
46.3

$$$$
>  <COMPOUND>
CCC1(C2CCCC2)NC(=O)NC1=O (configuration not stated)

>  <growth, %>
100

$$$$
>  <COMPOUND>
C#CCOc1nc(C)cc(C)c1C#N

>  <growth, %>
90.6

$$$$
>  <COMPOUND>
CC(=O)c1nc(Nc2ccc(C)cc2)sc1C

>  <growth, %>
87.9

$$$$
>  <COMPOUND>
Oc1c(CN2CCCC2)cc(COCc2ccc(Br)cc2)c2cccnc12

>  <growth, %>
1.4

$$$$
>  <COMPOUND>
S=C(Cc1ccc2c(c1)CCCC2)N1CCOCC1

>  <growth, %>
102

$$$$
>  <COMPOUND>
NC(=S)N/N=C/Cc1ccccc1

>  <growth, %>
116

$$$$
>  <COMPOUND>
C=CC(=O)Nc1cccc(Oc2nccc(Nc3nnc(C4CC4)s3)n2)c1

>  <growth, %>
92.3

$$$$
>  <COMPOUND>
COc1ccc(N=Nc2ccc(O)c(=O)cc2)cc1

>  <growth, %>
11.1

$$$$
>  <COMPOUND>
NCCCNc1nc2ccccc2c2c(=O)c3cccc(Cl)c3sc12

>  <growth, %>
17.1

$$$$
>  <COMPOUND>
Cc1ccc(Nc2nc(N)nc(CSCC(=O)NN)n2)cc1

>  <growth, %>
89.8

$$$$
>  <COMPOUND>
COc1cc(Cn2ncc3ccc(NC(=O)c4cc5ccccc5oc4=N)cc32)cc(OC)c1OC

>  <growth, %>
82.4

$$$$
>  <COMPOUND>
CC/C=C\C[C@H](O)C/C=C1/C(=O)C=C[C@@H]1C/C=C\CCCCO

>  <growth, %>
0.105

$$$$
>  <COMPOUND>
COC(=O)c1ccc(CSc2nnc(-c3c(C)nc4ccc(C)cn34)o2)cc1

>  <growth, %>
92.9

$$$$
>  <COMPOUND>
COc1cc(C2CC(=O)Nc3c2c(C)nn3-c2nc3ccccc3[nH]2)cc2c1OCC(=O)N2 (configuration not stated)

>  <growth, %>
95.1

$$$$
>  <COMPOUND>
O=C(NCCNc1cc(-c2cn(-c3ccccc3)nc2-c2cccc(O)c2)ccn1)Nc1ccccc1

>  <growth, %>
80.1

$$$$
>  <COMPOUND>
Cc1ccc(S(=O)(=O)N/N=C\c2cc(Cl)ccc2O)cc1

>  <growth, %>
73.9

$$$$
>  <COMPOUND>
COc1cc(/C=N/Nc2ncc(-c3cc4cc5c(cc4o3)OCO5)s2)cc(OC)c1OC

>  <growth, %>
64.2

$$$$
>  <COMPOUND>
Cc1ccc(NS(=O)(=O)c2ccc3c(c2)C2OCCC2C(c2ccc(C(=O)C(C)C)cc2)N3)cc1C (configuration not stated)

>  <growth, %>
45.5

$$$$
>  <COMPOUND>
COc1ccc2cc(-c3cc(OC)c(OC)c(OC)c3)c(=O)oc2c1

>  <growth, %>
79.3

$$$$
>  <COMPOUND>
COc1ccc2[nH]c(O)c(/C=c3/cc4c(c(-c5ccc(F)c(OC)c5)n3)=Nc3ccccc3-4)c2c1

>  <growth, %>
88.3

$$$$
>  <COMPOUND>
COc1ccc(C2CC(c3cccc(OC)c3)=NN2C(=O)c2cc(OC)c(OC)c(OC)c2)cc1 (configuration not stated)

>  <growth, %>
23.6

$$$$
